# Tested on: C. glabrata
# Protocol text: Inhibition of growth of C. glabrata, Example 2 antifungal assay
# Assay type: cell-based
# Cond: ½ strength PDB, 30° C., A595
Kindly state IC50 against C. glabrata for each of the entries shown.
# unit: µg/mL | format: bare number

Challenge: Give the measured IC50 against C. glabrata of HXL002: Class I plant defensin from Triticum aestivum (RDCLSQSHKFKGACLSSSNCAAVCRTENFPDGECHTHNFARKCFCKRAC; HXL002 Triticum aestivum) .
Response given: 15

Challenge: Subsequent entry: HXL035: Class I plant defensin from Picramnia pentandra (KVCTKPSKFFKGLCGFDRDCTVACKKEGLASGFCQNKGFFNVVCVCRKPC; HXL035 Picramnia pentandra)
Response given: 10

Challenge: Another substance to check: HXL005: Class I plant defensin from Taraxcum kok-saghyz (KMCQTTSHAFSCVNDSGCSGSCEKQGFASGKCDGVRRRCTCYKKC; HXL005 Taraxcum kok-saghyz)
Response given: 11

Challenge: Then HXL008: Class I plant defensin from Picramnia pentandra (KVCTKPSKFFKGLCGTDGACTTACRKEGLHSGYCQLKGFLNSVCVCRKHC; HXL008 Picramnia pentandra) ?
Response given: 20

Challenge: Next up: HXL001: Class I plant defensin from Zea mays (RHCLSQSHRFKGLCMSSNNCANVCQTENFPGGECKAEGATRKCFCKKIC; HXL001 Zea mays)
Response given: 32
